B1: Pistol ribozyme (parent)
chain: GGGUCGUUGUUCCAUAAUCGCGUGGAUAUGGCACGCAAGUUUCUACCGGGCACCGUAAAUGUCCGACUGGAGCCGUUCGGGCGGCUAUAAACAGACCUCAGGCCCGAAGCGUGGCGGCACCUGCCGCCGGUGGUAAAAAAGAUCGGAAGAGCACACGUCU

- Variants of: B1
- test name: aptazyme ON/OFF ratio, guanine; higher = stronger switching; co-transcriptional cleavage with and without guanine

>  <mutation>
U7A U8A U10A C13U

>  <aptazyme ON/OFF ratio>
1.06

$$$$
>  <mutation>
U7C G9A U11A C13A

>  <aptazyme ON/OFF ratio>
1.21

$$$$
>  <mutation>
G9U U10A U11C C12U C13U

>  <aptazyme ON/OFF ratio>
1.5

$$$$
>  <mutation>
U7G U8C U10G U11G C12U C13U

>  <aptazyme ON/OFF ratio>
1.34

$$$$
>  <mutation>
U7A C12A

>  <aptazyme ON/OFF ratio>
1.54

$$$$
>  <mutation>
U7A U8C G9A U10G C13U

>  <aptazyme ON/OFF ratio>
1.09

$$$$
>  <mutation>
U7G U8G G9A C12A

>  <aptazyme ON/OFF ratio>
1.41

$$$$
>  <mutation>
U7C U10A U11G C12G C13A

>  <aptazyme ON/OFF ratio>
1.26

$$$$
>  <mutation>
U7A U8A G9C U10C U11A C12A

>  <aptazyme ON/OFF ratio>
1.06

$$$$
>  <mutation>
U7G G9C U10A U11A C12A C13A

>  <aptazyme ON/OFF ratio>
1.36

$$$$
>  <mutation>
U8A G9C U10A C12G

>  <aptazyme ON/OFF ratio>
1.17

$$$$
>  <mutation>
U8G G9U U10A C12U C13U

>  <aptazyme ON/OFF ratio>
1.17

$$$$
>  <mutation>
U7C U8G C12G C13U

>  <aptazyme ON/OFF ratio>
1.17

$$$$
>  <mutation>
U7C G9U U10A U11C C12U C13A

>  <aptazyme ON/OFF ratio>
1.23

$$$$
>  <mutation>
G9C U10A U11G C12A

>  <aptazyme ON/OFF ratio>
1.06

$$$$
>  <mutation>
U7G U8C G9A U10C U11G C13G

>  <aptazyme ON/OFF ratio>
1.27

$$$$
>  <mutation>
U7A U8C G9C U10A U11C C12A C13G

>  <aptazyme ON/OFF ratio>
1.16

$$$$
>  <mutation>
U7G U8G U10C U11C

>  <aptazyme ON/OFF ratio>
2.2

$$$$
>  <mutation>
U7A U8A U10C U11G

>  <aptazyme ON/OFF ratio>
1.2

$$$$
>  <mutation>
U7C U8A G9U U11A C12U C13A

>  <aptazyme ON/OFF ratio>
1.16

$$$$
>  <mutation>
U7C U8G G9U U10G U11G C12G C13G

>  <aptazyme ON/OFF ratio>
1.24

$$$$
>  <mutation>
U7G G9A

>  <aptazyme ON/OFF ratio>
4.35

$$$$
>  <mutation>
U7G U8G G9C U10G U11A

>  <aptazyme ON/OFF ratio>
1.32

$$$$
>  <mutation>
U7A U8A G9A U10C U11G C12G

>  <aptazyme ON/OFF ratio>
1.23

$$$$
>  <mutation>
U7A U8A G9A U10A C12G C13U

>  <aptazyme ON/OFF ratio>
1.28

$$$$
>  <mutation>
U7C G9C U10C U11A C13G

>  <aptazyme ON/OFF ratio>
1.05

$$$$
>  <mutation>
U8A G9C U10A U11G C12A C13G

>  <aptazyme ON/OFF ratio>
1.26

$$$$
>  <mutation>
G9C U10A U11G C12G C13U

>  <aptazyme ON/OFF ratio>
1.16

$$$$
>  <mutation>
U8G G9C U10G U11G C13U

>  <aptazyme ON/OFF ratio>
1.12

$$$$
>  <mutation>
U7A U8G G9U U10A U11A C12G

>  <aptazyme ON/OFF ratio>
1.33

$$$$
>  <mutation>
U7A G9A U11C

>  <aptazyme ON/OFF ratio>
1.02

$$$$
>  <mutation>
U8G G9U U10C U11A C13A

>  <aptazyme ON/OFF ratio>
1.06

$$$$
>  <mutation>
U7G U8A G9U U10G U11G C12G C13G

>  <aptazyme ON/OFF ratio>
1.24

$$$$
>  <mutation>
U7G U8C G9C C13A

>  <aptazyme ON/OFF ratio>
1.11

$$$$
>  <mutation>
U7C U8C G9U U10G C12U

>  <aptazyme ON/OFF ratio>
1.33

$$$$
>  <mutation>
U7G G9U U10A C12A C13G

>  <aptazyme ON/OFF ratio>
1.26

$$$$
>  <mutation>
U7A U8G G9U U11G C12U C13U

>  <aptazyme ON/OFF ratio>
1.29

$$$$
>  <mutation>
U8A G9C U10G U11G C12G C13G

>  <aptazyme ON/OFF ratio>
1.23

$$$$
>  <mutation>
U7C G9U U10C U11G C12A C13A

>  <aptazyme ON/OFF ratio>
1.11

$$$$
>  <mutation>
U7A U8A G9C U10G C12U C13G

>  <aptazyme ON/OFF ratio>
1.19

$$$$
>  <mutation>
U7G U8G G9A U10G C12G

>  <aptazyme ON/OFF ratio>
1.28

$$$$
>  <mutation>
U7A U8A U10G U11A C12A

>  <aptazyme ON/OFF ratio>
1.4

$$$$
>  <mutation>
U7G U8C G9U U11A C12G C13U

>  <aptazyme ON/OFF ratio>
1.22

$$$$
>  <mutation>
U7C U8G U11G C13A

>  <aptazyme ON/OFF ratio>
1.13

$$$$
>  <mutation>
G9U U10C U11A C13G

>  <aptazyme ON/OFF ratio>
1.09

$$$$
>  <mutation>
U8C G9C U10G U11C C12A

>  <aptazyme ON/OFF ratio>
1.22

$$$$

These data points were gathered from the RNAGym collection of RNA variant scans (doi:10.1021/acssynbio.7b00057).
